- RUN_DESCRIPTION: NCI Yeast Anticancer Drug Screen. Data for the mlh1 rad18 strain (AID 175)
- CONDITION_INFO: S. cerevisiae mlh1 rad18 strain growth inhibition; at 50.0 µM; stronger effect = higher value
The panel holds about 79,000 compounds, 15% with a hit somewhere; the sample as a whole holds those more often.
ENDPOINT: growth inhibition (%)
Answers are plain numbers, in %.

Lookup: Name the recorded growth inhibition for CC(C)c1ccc(C(=O)OCC2CCCO2)cc1 (centres undefined) .
Found: 3.65

# map each molecule to its growth inhibition
1. CC(O)CN(Cc1ccccc1)CC(C)O (centres undefined)
2. O=C(C[n+]1ccccc1)N/N=C(\Cc1nc2ccc([N+](=O)[O-])cc2[nH]c1=O)C(=O)Nc1cc(Cl)c(Cl)cc1Cl
3. Cc1ccc(S(=O)(=O)OC(c2ccc(C(OS(=O)(=O)c3ccc(C)cc3)(C(F)(F)F)C(F)(F)F)cc2)(C(F)(F)F)C(F)(F)F)cc1
4. NC(=O)c1[nH]c(COCCO)nc1N
5. CCOC(=O)C(=O)Cc1ccccc1[N+](=O)[O-]
6. [O-]C(=N/C(=N/[n+]1ccccc1)c1ccccc1)c1ccccc1

Found:
1. -14.9
2. 9.35
3. 4.7
4. 22.4
5. 38
6. 2

# map each molecule to its growth inhibition
1. C=CCOCC(O)CO (centres undefined)
2. COc1cc(C=O)cc(Br)c1O
3. CCn1c(=O)c2c3cc(OC(C)=O)ccc3oc2c2ccc(OC(C)=O)cc21
4. Cc1ccc(S(=O)(=O)NCNS(=O)(=O)c2ccc(C)cc2)cc1
5. COc1cc2c(c(OC)c1OC)-c1c(cc3c(c1OC)OCO3)C1OC2C(C)C1C (centres undefined) (tested in a mixture with another compound)
6. OC1(Cl)c2cccc3cccc(c23)C1(O)Cl (centres undefined)
7. CCOC(=O)CC1C(C)C(C)NC(C)C1C (centres undefined)

Found:
1: 28.1; 2: 34.4; 3: -4.75; 4: -35.6; 5: -39.2; 6: -14.1; 7: 5.75

---

- RUN_DESCRIPTION: NCI Yeast Anticancer Drug Screen. Data for the bub3 strain (AID 167)
- CONDITION_INFO: S. cerevisiae bub3 mutant strain, at 50.0 µM, stronger effect = higher value
Compounds without any hit were thinned out: in the full panel of roughly 79,000, 15% have a hit. The source made the active and inactive calls. Rule as the data show it: active = growth inhibition above about 70%; inactive = the rest.
ENDPOINT: growth inhibition

Solved entries:
Lookup: Name the recorded growth inhibition for `CC(=O)N(C(=O)CC(=O)N/N=C\c1ccc(Br)c(N(CCC#N)CCC#N)c1)c1ccc(Cl)cc1` .
Found: 6.2% (inactive)

Lookup: Now this one: `CC(=O)Nc1ccc(S(=O)(=O)Nc2c(-c3ccccc3)[nH]c(C)c2C(C)=O)cc1`
Found: 1.65% (inactive)

Lookup: Now this one: `N#Cc1nnn(-c2ccccc2)n1`
Found: 4% (inactive)

Lookup: Now this one: `O=C(NC(=O)c1ccccc1Cl)Nc1ccc(C(O)(C(F)(F)F)C(F)(F)F)cc1`
Found: 34.3% (inactive)

Further cases:
Lookup: Name the recorded growth inhibition for `CCCCCCCCCCCC(=O)OCC` .
Found: 9.15% (inactive)

---

- RUN_DESCRIPTION: NCI Yeast Anticancer Drug Screen. Data for the rad50 strain (AID 155);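 note: 0% = growth of vehicle-only cultures of the same strain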
- CONDITION_INFO: S. cerevisiae rad50 strain growth inhibition; at 50.0 µM; stronger effect = higher value
Compounds without any hit were thinned out: in the full panel of roughly 79,000, 15% have a hit.
Exercise: for every item that follows, state its recorded growth inhibition.
One number for each entry, in %.

Solved entries:
Lookup: Name the recorded growth inhibition for `Cc1cc(C)nc(N)c1` .
Found: 3.75

Lookup: Now this one: `N/N=C1\CCCc2c1no[n+]2[O-]`
Found: 6.05

Lookup: Now this one: `CCOC(=O)c1ccc(/C(C)=N/NC(N)=S)cc1`
Found: 7.35

Lookup: Now this one: CCCCOCCOC(=O)CCCCCC1C=CCCC1 (stereo not given)
Found: 10.8

Lookup: Now this one: `C/C(=N\N(C)/C=N/S(C)(=O)=O)c1ccccc1`
Found: 7.85

# map each molecule to its growth inhibition
1. CCCC(O)C(CC)[N+](=O)[O-] (stereo not given)
2. O=C(NC(=S)c1ccccc1)Nc1ccccc1
3. COc1ccccc1NC(=O)C1=C(C)NC(C)=C(C(=O)Nc2ccccc2OC)C1c1ccco1
4. COc1ccc(CC2=NCCc3cc(OCc4ccccc4)c(OC)cc32)cc1OCc1ccccc1

Found:
13.6
2.1
-4.8
66.8

---

- RUN_DESCRIPTION: NCI Yeast Anticancer Drug Screen. Data for the mlh1 rad18 strain (AID 175)
- CONDITION_INFO: S. cerevisiae mlh1 rad18 strain growth inhibition; at 50.0 µM; stronger effect = higher value
Compounds without any hit were thinned out: in the full panel of roughly 79,000, 15% have a hit.
ENDPOINT: growth inhibition (%)
Give bare numbers, in %.

Solved entries:
Lookup: Name the recorded growth inhibition for `COc1ccc(Cc2coc3ccccc3c2=O)cc1` .
Found: 9.4

Lookup: Now this one: `CCCCCCCCCC(=O)N/N=C/c1ccccc1Cl`
Found: 30.4

Lookup: Now this one: `Cc1ccc2nccc(C)c2c1`
Found: -7.8

Lookup: Now this one: NC1CC(=O)C(CC2C(=O)CC(N)CC2=O)C(=O)C1 (centres undefined)
Found: -3.65

Lookup: Now this one: `CN(C)c1ccc(/C=N/NC(=O)c2ccccc2NC(=O)c2ccccc2)cc1`
Found: 3.4

# map each molecule to its growth inhibition
1. COc1ccc2[nH]c(C(F)(F)F)cc(=O)c2c1
2. COc1cc2cccc(N=Cc3cccc(OC)c3OC(C)C)c2cc1OC
3. C=CCOCn1ccc(=O)[nH]c1=O
4. CCC12CC3(C(=O)OC)OC1C(O)CN1CCc4c(n3c3cc(OC)ccc43)C12 (centres undefined)

Found:
[14.8, -8.6, -3.05, 1.5]

---

- RUN_DESCRIPTION: NCI Yeast Anticancer Drug Screen. Data for the mlh1 rad18 strain (AID 175)
- CONDITION_INFO: S. cerevisiae mlh1 rad18 strain growth inhibition; at 50.0 µM; stronger effect = higher value
Compounds without any hit were thinned out: in the full panel of roughly 79,000, 15% have a hit.
Exercise: for every item that follows, state its recorded growth inhibition.
Numbers only, in %.

Solved entries:
Lookup: Name the recorded growth inhibition for `Nc1ccccc1N=Cc1cc(F)ccc1[N+](=O)[O-]` .
Found: 1.35

Lookup: Now this one: CC(C)C1NC(C(=O)O)C(C)(C)S1 (centres undefined)
Found: -16.1

Lookup: Now this one: `CCOC(=O)/C(=C/c1ccc(N(C)C)cc1)N(CC)CC`
Found: -18.6

# map each molecule to its growth inhibition
1. O=P(c1ccccc1)(c1ccccc1)c1ccccc1OCCCO
2. O=C1c2cc(Cl)ccc2-n2c(noc2=O)C2CSCN12 (centres undefined)
3. COc1ccc(CCNC(=O)CCc2ccccc2CO)cc1OC
4. O=[N+]([O-])c1ccc(S(=O)(=O)c2ccc(N=Cc3ccc(C=Nc4ccc(S(=O)(=O)c5ccc([N+](=O)[O-])cc5)cc4)cc3)cc2)cc1
5. CCc1cc(O)cc(C)c1Cl
6. c1ccc(C2=C(c3ccccc3)C2c2ccccc2)cc1

Found:
1: 3.15; 2: 11.6; 3: -5.9; 4: -5.85; 5: 26.1; 6: 7.15

---

Exercise: for every item that follows, state its recorded growth inhibition.
- RUN_DESCRIPTION: NCI Yeast Anticancer Drug Screen. Data for the mlh1 rad18 strain (AID 175)
- CONDITION_INFO: S. cerevisiae mlh1 rad18 strain growth inhibition; at 50.0 µM; stronger effect = higher value
Compounds without any hit were thinned out: in the full panel of roughly 79,000, 15% have a hit.
One number for each entry, in %.

Lookup: Name the recorded growth inhibition for `Cc1nn(C(=O)CC(=O)Nc2ccc(Cl)cc2)c(C)c1N=Nc1ccccc1F` .
Found: -43

Lookup: Now this one: `O=C(O)CNS(=O)(=O)c1ccccc1`
Found: 6

Lookup: Now this one: `Cc1ccc(N=Nc2c(O)n(C)c(=O)n(C)c2=O)cc1C`
Found: -12.8

# map each compound to its growth inhibition
1. N#Cc1c(-c2ccc(Cl)cc2)c(C#N)c(=O)n(NS(=O)(=O)c2ccccc2)c1O
2. COc1ccc(/C(=C/n2ccnc2)C(O)c2ccc(OC)c(OC)c2)cc1OC (stereo not given)
3. Nc1ccnc(Sc2ncccc2[N+](=O)[O-])n1
4. Cc1cc(C)nc(NS(=O)(=O)c2ccc(Nc3c4ccccc4nc4c(C(=O)Nc5ccc(S(=O)(=O)N=C(N)N)cc5)cccc34)cc2)n1
5. C=CC1C(C(=O)Nc2ccccc2)CN1C (stereo not given)
6. O=c1c2cc3c(=O)n(O)c(=O)c3cc2c(=O)n1O

Found:
1. 50.2
2. -11.3
3. 1.3
4. 44.1
5. -3.4
6. -90.4

Lookup: Name the recorded growth inhibition for `CC(=O)N1CCc2[nH]c3ccccc3c2CC1` .
Found: 16.2
